Assign TGI to each entry below.
- System: SNB-75 CNS
- experimental protocol: NCI tumour cell line growth inhibition, 48 h

Give TGI for all compounds that follow.
1. NCCOCC(N)C(=O)O (stereo unspecified)
2. CCOC(=O)c1cn(C)c(=S)n2c1nc1ccccc12
3. C(/Cc1ccc2c(c1)OCO2)=N\NC1=NCCCN1
4. COC1(OC)c2no[n+]([O-])c2C(OC)(OC)c2c1no[n+]2[O-]
5. CC(=O)Oc1ccc(/C=N/NC(N)=S)nc1
6. C#CCC1(C(=O)OCC)C(=O)c2ccccc2N(C)C1=O (stereo unspecified)
7. C=CC1CN2CCC1CC2C(O)c1ccnc2ccccc12 (stereo unspecified)
8. COc1cc(/C=C(\C#N)C(N)=C(C#N)C#N)cc(O)c1O

Result:
1. > 100 µM
2. > 100 µM
3. 81.1 µM
4. 83.3 µM
5. > 100 µM
6. > 100 µM
7. > 100 µM
8. > 100 µM

---

Assign TGI to each entry below.
- System: OVCAR-4 ovarian
- experimental protocol: NCI tumour cell line growth inhibition, 48 h
Numbers only, in µM.

// below: answered compounds
>  <compound>
Cc1cc(Cl)ccc1NS(=O)(=O)c1ccc(-c2cnc(C3CC3)o2)cc1

>  <result type>
TGI

>  <assay value>
20.6

$$$$
>  <compound>
Cc1cc(C(O)CN(C)C)cc2c1ccc1cc(C(C)C)ccc12 (centres undefined)

>  <result type>
TGI

>  <assay value>
4.84

$$$$
>  <compound>
CN(C)c1ccc(/C=C2\N=C(c3ccccc3)N(c3ccc4c(c3)Sc3cc(N5C(=O)/C(=C/c6ccc(N(C)C)cc6)N=C5c5ccccc5)ccc3N4)C2=O)cc1

>  <result type>
TGI

>  <assay value>
61

$$$$

Query: Could you tell me which TGI is on file for Cc1ccc(S(=O)(=O)N(CC(O)COc2ccccc2)c2ccc(F)cc2F)cc1 (centres undefined) ?
Result: 23.8

---

- Test system: SK-OV-3 ovarian
- experimental protocol: NCI tumour cell line growth inhibition, 48 h
result type: TGI (µM)
One number for each entry, in µM.

// below: answered compounds
>  <compound>
CO[C@@]12[C@@H]3NC3CN1C1=C(C(=O)C(N)=C(C)C1=O)[C@@H]2COC(N)=O (stereo not given in full)

>  <result type>
TGI

>  <assay value>
5.33

$$$$
>  <compound>
O=c1c2ccccc2oc2ccc(OCCCCCCN3CCCCCC3)cc12

>  <result type>
TGI

>  <assay value>
8.29

$$$$

Query: Could you tell me which TGI is on file for COc1ccc2nc3ccccc3c(NCCCCN(C)CCCl)c2c1 ?
Result: 0.469

---

- Test system: RXF 393 renal
- experimental protocol: NCI tumour cell line growth inhibition, 48 h
result type: TGI (µM)
Answers are plain numbers, in µM.

>  <compound>
COC1(OC)c2no[n+]([O-])c2C(OC)(OC)c2c1no[n+]2[O-]

>  <readout units>
µM

>  <TGI>
58.7

$$$$

Please find the next compound below.
Query: Could you tell me which TGI is on file for CC1COCC(C)N1C1=C(Cl)C(=O)c2ccccc2C1=O (centres undefined) ?
Result: 4.22

---

Assign TGI to each entry below.
- Tested on: SK-MEL-5 melanoma
- experimental protocol: NCI tumour cell line growth inhibition, 48 h
Answers are plain numbers, in µM.

>  <compound>
COc1cc2cc3c4c(cc(OC)c(OC)c4c2cc1OC)CCN3C(=O)CCC(=O)NCCCN(C)C

>  <assay value>
28.2

$$$$

Please find the next compound below.
Query: Could you tell me which TGI is on file for CC1OC2OC3C(OCC(O)C3O)OC(=O)[C@]34CCC(C)(C)CC3C3=CCC5[C@@]6(C)C[C@H](O)[C@H](OC7OC(CO)C(O)C(O)C7OC7OCC(OC(=O)CC(C)(O)CC(=O)OC1C(OC1OC(CO)C(O)C(O)C1O)C2O)C(O)C7O)[C@@](C)(CO)C6CC[C@@]5(C)[C@]3(C)CC4 (stereo partly drawn) ?
Result: 28.8

---

Assign TGI to each entry below.
- Test system: SK-MEL-5 melanoma
- experimental protocol: NCI tumour cell line growth inhibition, 48 h

// below: answered molecules
>  <molecule>
CCOC(=O)c1cnccc1CC1(C#N)c2ccccc2C=CN1C(=O)c1ccccc1 (stereo unspecified)

>  <measured on>
SK-MEL-5 melanoma

>  <assay value>
37.8 µM

$$$$
>  <molecule>
O=c1cc(NCc2ccncc2)[nH]c(=O)[nH]1

>  <measured on>
SK-MEL-5 melanoma

>  <assay value>
> 100 µM

$$$$
>  <molecule>
CCN(CC)c1nc(N(C)C)c2ccccc2n1

>  <measured on>
SK-MEL-5 melanoma

>  <assay value>
35 µM

$$$$

Give TGI for all molecules that follow.
1. O=[N+]([O-])c1ccc(C(Nc2ccccc2)c2ccc3cccnc3c2O)cc1 (stereo unspecified)
2. CC(=O)C1C(=O)N(C(C)C)C[C@@H]2CCC(=O)C[C@H]12 (stereo partly specified)
3. C(/Cc1ccc2c(c1)OCO2)=N\NC1=NCCCN1

Result:
["22.3 µM", "> 100 µM", "56.4 µM"]

---

- Tested on: K-562 leukemia
- experimental protocol: NCI tumour cell line growth inhibition, 48 h
result type: TGI

>  <compound>
CSc1ccc(/C=C2\N=C(c3ccccc3)N(/N=C/c3cc4cc(C)ccc4nc3Cl)C2=O)cc1

>  <assay value>
57.2 µM

$$$$

Give TGI for all compounds that follow.
1. C[C@@H]1C[C@]2(C[C@@H](C)C3[C@@H](CC4(C)[C@@H]5CCC6C(C)(C)OC(=O)C=C[C@]67C[C@@]5(CC[C@]34C)OO7)O2)OC1=O (some centres undefined)
2. Cc1nc(-c2cc3cc(Cl)ccc3oc2=O)cc2c1c(=O)oc1ccc(Cl)cc12

Result:
1. > 100 µM
2. > 100 µM

Give TGI for all compounds that follow.
1. O=C(c1ccc(Cl)cc1)C1OC12C(=O)Nc1ccccc12 (centres undefined)
2. COc1cc2c(c(OC)c1OC)-c1ccc(SC)c(=O)cc1[C@@H](NC(=O)c1ccc(Cl)cc1)CC2

Result:
1. 11.2 µM
2. > 100 µM

Give TGI for all compounds that follow.
1. CC1CC/C(=C\c2ccc(Cl)cc2)c2nc(N)c(C#N)c(-c3ccc(Cl)cc3)c21 (centres undefined)
2. CC(=O)C1C(=O)N(C(C)C)C[C@@H]2CCC(=O)C[C@H]12 (some centres undefined)
3. C/C=C1\C(=O)OC2CCN3CCC(COC(=O)C(C)(O)C(C)C1O)C23 (centres undefined)
4. COC(=O)[C@@H]1CN(C(=O)c2ccccc2)C(=O)N1C(=O)OCc1ccccc1

Result:
1. > 100 µM
2. > 100 µM
3. > 100 µM
4. > 100 µM

---

- System: NCI-H226 lung
result type: GI50

>  <compound>
CC(=O)N(Cc1ccccc1)c1ccccc1I(=O)=O

>  <result type>
GI50

>  <assay value>
> 100 µM

$$$$
>  <compound>
O=C(Nc1ccccc1C(=O)N/N=C(\c1ccccc1)c1ccccn1)c1ccc(F)cc1

>  <result type>
GI50

>  <assay value>
0.366 µM

$$$$
>  <compound>
Nc1ccc(S(=O)(=O)Nc2cnc3c(Cl)cccc3n2)cc1

>  <result type>
GI50

>  <assay value>
> 75.6 µM

$$$$
>  <compound>
Cc1cc(Cl)ccc1NS(=O)(=O)c1ccc(-c2cnc(C3CC3)o2)cc1

>  <result type>
GI50

>  <assay value>
1.04 µM

$$$$
>  <compound>
O=c1cc(-c2ccccn2)[nH]c2ccc(Cl)cc12

>  <result type>
GI50

>  <assay value>
46.5 µM

$$$$
>  <compound>
OCNCCNc1nc2ccccc2c2[nH]c3ccccc3c12

>  <result type>
GI50

>  <assay value>
1.47 µM

$$$$

Give GI50 for all compounds that follow.
1. Oc1ccc(Cl)cc1Cc1cc(Cl)ccc1O
2. O=C(NCCCCCCCNC(=O)OCc1ccc2c(Cl)cc(Cl)c(O)c2n1)OCc1ccc2c(Cl)cc(Cl)c(O)c2n1
3. CO[C@@]12[C@@H]3NC3CN1C1=C(C(=O)C(N)=C(C)C1=O)[C@@H]2COC(N)=O (some centres undefined)

Result:
1. 3.28 µM
2. 0.557 µM
3. 0.504 µM

---

Assign TGI to each entry below.
- Tested on: COLO 205 colon
- experimental protocol: NCI tumour cell line growth inhibition, 48 h

>  <compound>
CC1(C2CCC3(C)OC3C2)CO1 (stereo unspecified)

>  <assay value>
> 100 µM

$$$$
>  <compound>
COc1cc([N+](=O)[O-])c2ncccc2c1[N+](=O)[O-]

>  <assay value>
22.9 µM

$$$$
>  <compound>
C(/Cc1ccc2c(c1)OCO2)=N\NC1=NCCCN1

>  <assay value>
> 100 µM

$$$$

Give TGI for all compounds that follow.
1. CCOC(=O)C1(C(F)(F)F)N=C(CC)OC(N2CCOCC2)=N1 (stereo unspecified)
2. CC(=O)/C(=C\c1ccc(Cl)c(Cl)c1)C(=O)C(C)CN(C)C (stereo unspecified)
3. CCCCCCCCCCCCOP(N)(=O)OCCCCCCCCCCCC
4. N=C1C=C(N)C(=O)c2[nH]c(=O)ccc21

Result:
1: > 100 µM; 2: 24.4 µM; 3: > 100 µM; 4: 3.14 µM
